- target.system: human ether-à-go-go-related gene (hERG) potassium channel (human, UniProt Q12809);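 note: peak tail current of the secondary pulse compared with the same well before compound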
- Sequence (Q12809 whole entry, looked up): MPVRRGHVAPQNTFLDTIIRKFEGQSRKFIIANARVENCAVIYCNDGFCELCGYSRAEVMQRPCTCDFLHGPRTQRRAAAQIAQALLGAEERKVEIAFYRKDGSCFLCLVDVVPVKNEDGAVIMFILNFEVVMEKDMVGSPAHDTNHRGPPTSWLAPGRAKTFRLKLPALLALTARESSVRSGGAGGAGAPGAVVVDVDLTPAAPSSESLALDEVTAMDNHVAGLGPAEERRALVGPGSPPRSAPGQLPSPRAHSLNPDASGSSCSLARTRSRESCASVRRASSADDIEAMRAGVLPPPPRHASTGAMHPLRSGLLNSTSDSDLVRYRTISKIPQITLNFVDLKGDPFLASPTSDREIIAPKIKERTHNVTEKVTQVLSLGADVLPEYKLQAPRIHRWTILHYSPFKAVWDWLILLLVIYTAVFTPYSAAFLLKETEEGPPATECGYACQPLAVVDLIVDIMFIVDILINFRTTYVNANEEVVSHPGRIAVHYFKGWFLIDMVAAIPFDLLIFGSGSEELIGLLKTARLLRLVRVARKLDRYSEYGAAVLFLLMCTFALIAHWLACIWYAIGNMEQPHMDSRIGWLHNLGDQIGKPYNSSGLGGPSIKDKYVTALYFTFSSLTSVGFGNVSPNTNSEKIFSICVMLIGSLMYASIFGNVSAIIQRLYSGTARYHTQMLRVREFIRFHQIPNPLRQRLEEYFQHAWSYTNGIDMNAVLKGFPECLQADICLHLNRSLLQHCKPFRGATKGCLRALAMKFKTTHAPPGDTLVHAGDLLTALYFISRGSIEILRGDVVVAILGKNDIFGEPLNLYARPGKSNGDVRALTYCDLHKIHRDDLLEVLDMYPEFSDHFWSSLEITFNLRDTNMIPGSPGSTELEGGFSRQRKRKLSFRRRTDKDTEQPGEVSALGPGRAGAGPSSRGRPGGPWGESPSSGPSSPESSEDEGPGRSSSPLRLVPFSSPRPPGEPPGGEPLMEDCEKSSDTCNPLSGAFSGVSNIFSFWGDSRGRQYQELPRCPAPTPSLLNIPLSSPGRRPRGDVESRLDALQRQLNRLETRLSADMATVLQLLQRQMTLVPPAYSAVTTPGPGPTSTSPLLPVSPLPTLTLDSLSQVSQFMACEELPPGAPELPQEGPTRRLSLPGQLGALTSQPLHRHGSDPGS
- experiment: primary screen, population patch clamp on CHO cells stably expressing hERG; higher = less effect of the substance
- Experimental: Briefly, Chinese hamster ovary (CHO) cells stably expressing the hERG channel were dislodged from tissue culture flasks and dispensed into PPC plates. […] During the recording, background leak currents were estimated by a 100 ms step to -80 mV from an initial holding potential of -70 mV and subtracted from the subsequent current measurement. The campaign was conducted in two phases using slight differences in recording protocol. […]
Out of some 310,000 compounds screened, about 14,000 (4.5%) showed an effect of 50% or more. Effects have a minus sign here. This excerpt belongs to a sample that is enriched for strong results.
Each entry below lists one item and its recorded hERG current change (%, negative = inhibition) at 10uM value.
property: hERG current change (%, negative = inhibition) at 10uM

INSERT INTO assay_data (compound, target_system, value_measured) VALUES
  ('CCC1(c2ccccc2)NC(=O)N(CC(=O)Nc2ccc(Cl)c(S(=O)(=O)N3CCCCC3)c2)C1=O (stereo not shown)', 'human ether-à-go-go-related gene (hERG) potassium channel (human, UniProt Q12809)', '12.4%'),
  ('O=C(Cn1ccccc1=O)Nc1ccc(Cl)c(S(=O)(=O)N2CCCCC2)c1', 'human ether-à-go-go-related gene (hERG) potassium channel (human, UniProt Q12809)', '-79.4%'),
  ('Cl.N=c1sccn1CC(=O)Nc1ccc(S(=O)(=O)N2CCOCC2)cc1', 'human ether-à-go-go-related gene (hERG) potassium channel (human, UniProt Q12809)', '-5.32%'),
  ('Cc1nn(CC(=O)Nc2cc(S(=O)(=O)N(C)C)ccc2Cl)c(C)c1[N+](=O)[O-]', 'human ether-à-go-go-related gene (hERG) potassium channel (human, UniProt Q12809)', '-20.9%'),
  ('CN(C)S(=O)(=O)c1cc(NC(=O)Cn2ccsc2=N)ccc1Cl.Cl', 'human ether-à-go-go-related gene (hERG) potassium channel (human, UniProt Q12809)', '-56.3%'),
  ('CC(C)CN(CCCNC(=O)CN1C(=O)COc2ccc(S(=O)(=O)N3CCOCC3)cc21)CC(C)C', 'human ether-à-go-go-related gene (hERG) potassium channel (human, UniProt Q12809)', '6.18%'),
  ('CC(=O)Nc1cccc(NC(=O)CSc2nnc3ccc(-c4ccncc4)nn23)c1', 'human ether-à-go-go-related gene (hERG) potassium channel (human, UniProt Q12809)', '-17.8%'),
  ('Cc1cc(NC(=O)COc2c(C)cccc2C)no1', 'human ether-à-go-go-related gene (hERG) potassium channel (human, UniProt Q12809)', '22.3%'),
  ('Cc1nn(CC(=O)Nc2ccc(Cl)c(S(=O)(=O)N(C)C)c2)c(C)c1[N+](=O)[O-]', 'human ether-à-go-go-related gene (hERG) potassium channel (human, UniProt Q12809)', '-61.3%'),
  ('CCOc1cc(CNC(C)(C)CO)cc(Br)c1OCc1ccc(Cl)cc1Cl', 'human ether-à-go-go-related gene (hERG) potassium channel (human, UniProt Q12809)', '-12.1%'),
  ('CCOCCCNC(=O)CN1C(=O)COc2ccc(S(=O)(=O)N3CCC(C)CC3)cc21', 'human ether-à-go-go-related gene (hERG) potassium channel (human, UniProt Q12809)', '6.25%'),
  ('CN(C)S(=O)(=O)c1ccc(NC(=O)Cn2ccsc2=N)cc1', 'human ether-à-go-go-related gene (hERG) potassium channel (human, UniProt Q12809)', '13.7%'),
  ('COc1ccnc(Oc2ccccc2)c1C(N)=O', 'human ether-à-go-go-related gene (hERG) potassium channel (human, UniProt Q12809)', '20.2%'),
  ('CCOc1ccccc1CNC(=O)CCNS(=O)(=O)c1ccc2[nH]c(=O)oc2c1', 'human ether-à-go-go-related gene (hERG) potassium channel (human, UniProt Q12809)', '-2.89%'),
  ('CC1(c2ccccc2)NC(=O)N(CC(=O)Nc2ccc(Cl)c(S(=O)(=O)N3CCCCC3)c2)C1=O (stereo not shown)', 'human ether-à-go-go-related gene (hERG) potassium channel (human, UniProt Q12809)', '-8.09%'),
  ('NC(=O)N/N=C/c1cn(-c2ccccc2)nc1-c1ccccc1', 'human ether-à-go-go-related gene (hERG) potassium channel (human, UniProt Q12809)', '-6.63%'),
  ('CCCCN(CCCC)CCCNC(=O)CN1C(=O)COc2ccc(S(=O)(=O)N3CCC(C)CC3)cc21', 'human ether-à-go-go-related gene (hERG) potassium channel (human, UniProt Q12809)', '-74.8%'),
  ('Cc1ccccc1NC(=O)CSc1nnc2ccc(-c3ccncc3)nn12', 'human ether-à-go-go-related gene (hERG) potassium channel (human, UniProt Q12809)', '-69.5%'),
  ('CC1CCN(S(=O)(=O)c2ccc3c(c2)N(CC(=O)NCCCOC(C)C)C(=O)CO3)CC1', 'human ether-à-go-go-related gene (hERG) potassium channel (human, UniProt Q12809)', '12.8%');
